src = patent US20260103497A1

Test: Pre-clinical pharmacokinetics in rats
Settings: rat, in vivo
assay readout: half-life

Form field half-life, entry NC(=O)C(CCCCNC(=O)COCCOCCOCCNC(=O)COCCOCCOCCNC(=O)CCC(NC(=O)CC(=O)O)C(=O)O)NN[C@H](C=O)CO (stereo partly shown) [Compound of formula I] : ~14 h

* * *

Assay: Pre-clinical pharmacokinetics in cynomolgus monkeys
Settings: cynomolgus monkey, in vivo
assay readout: half-life

Form field half-life, entry NC(=O)C(CCCCNC(=O)COCCOCCOCCNC(=O)COCCOCCOCCNC(=O)CCC(NC(=O)CC(=O)O)C(=O)O)NN[C@H](C=O)CO (stereo partly shown) : ~40 h
